Listing of entries alongside the reported pIC50.
- Target Or System: recombinant mouse APA (Mus musculus, UniProt P16406)
- Sequence (P16406 whole entry): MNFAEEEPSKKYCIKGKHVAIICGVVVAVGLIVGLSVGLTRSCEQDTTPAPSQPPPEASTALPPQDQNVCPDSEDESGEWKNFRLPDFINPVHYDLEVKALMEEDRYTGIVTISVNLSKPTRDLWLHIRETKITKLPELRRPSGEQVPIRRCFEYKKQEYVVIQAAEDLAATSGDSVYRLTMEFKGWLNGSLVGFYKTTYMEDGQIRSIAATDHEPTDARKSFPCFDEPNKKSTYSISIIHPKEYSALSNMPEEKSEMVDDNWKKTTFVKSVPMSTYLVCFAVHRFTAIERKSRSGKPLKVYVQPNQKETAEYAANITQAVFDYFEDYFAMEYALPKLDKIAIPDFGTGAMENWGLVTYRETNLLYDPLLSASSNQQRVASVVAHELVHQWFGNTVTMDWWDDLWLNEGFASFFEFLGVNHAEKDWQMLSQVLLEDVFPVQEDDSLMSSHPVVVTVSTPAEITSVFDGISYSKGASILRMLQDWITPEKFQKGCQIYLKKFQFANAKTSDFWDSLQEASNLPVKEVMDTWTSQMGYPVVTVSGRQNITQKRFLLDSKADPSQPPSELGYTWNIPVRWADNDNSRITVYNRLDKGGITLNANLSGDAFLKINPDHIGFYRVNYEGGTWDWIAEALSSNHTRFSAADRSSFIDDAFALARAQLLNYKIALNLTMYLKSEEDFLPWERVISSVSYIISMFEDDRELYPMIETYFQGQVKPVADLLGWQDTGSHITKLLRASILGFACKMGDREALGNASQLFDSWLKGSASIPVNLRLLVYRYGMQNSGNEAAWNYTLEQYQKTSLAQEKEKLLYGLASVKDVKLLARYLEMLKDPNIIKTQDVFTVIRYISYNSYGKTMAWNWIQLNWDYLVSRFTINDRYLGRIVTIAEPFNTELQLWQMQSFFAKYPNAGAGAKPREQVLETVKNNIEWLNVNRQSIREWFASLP
- Method Notes: Measurement of APA activity in vitro (GluβNa hydrolysis, microplate)
- Test Parameters: 200 μM Glu-βNa, pH 7.4, 37° C., read-out: In vitro inhibition of aminopeptidase A, IC50 classification
pIC50: −log10 of the molar value.

Molecule	Target Or System	pIC50
NC(CCC(=O)O)P(=O)(O)CCn1ncc2ccccc21 (stereo not drawn)	recombinant mouse APA (Mus musculus, UniProt P16406)	5.00 to 6.52
NC(CCP(=O)(O)O)P(=O)(O)CCc1ccccc1 (stereo not drawn)	recombinant mouse APA (Mus musculus, UniProt P16406)	5.00 to 6.52
NC(CCS(=O)(=O)O)P(=O)(O)Cc1cc(-c2ccccc2)no1 (stereo not drawn)	recombinant mouse APA (Mus musculus, UniProt P16406)	5.00 to 6.52
NC(CCC(=O)O)P(=O)(O)Cc1cccc2ccccc12 (stereo not drawn)	recombinant mouse APA (Mus musculus, UniProt P16406)	> 7.52
N[C@@H](CCC(=O)O)P(=O)(O)CCc1ccccc1OC1CCCCC1	recombinant mouse APA (Mus musculus, UniProt P16406)	> 7.52

Attention now turns to another entry.
Request: Could you tell me which pIC50 is on file for COc1cccc(CCP(=O)(O)C(N)CCC(=O)O)c1 (stereo not drawn) ?
Result: > 7.52

====

- Target Or System: recombinant mouse APA (Mus musculus, UniProt P16406)
- Method Notes: Measurement of APA activity in vitro (GluβNa hydrolysis, microplate)
- Test Parameters: 200 μM Glu-βNa, pH 7.4, 37° C., read-out: In vitro inhibition of aminopeptidase A, IC50 classification
Observed Property: IC50

Molecule	Test Result
COc1ccccc1CP(=O)(O)C(N)CCS(=O)(=O)O (centres unmarked) [Example 60]	30 to 300 nM
NC(CCCS(=O)(=O)O)P(=O)(O)CCc1ccccc1 (centres unmarked) [Example 67]	30 to 300 nM
NC(CCC(=O)O)P(=O)(O)CCc1ccccc1OCc1ccccc1 (centres unmarked) [Example 48]	< 30 nM
NC(CCC(=O)O)P(=O)(O)Cc1cccc(OC(F)(F)F)c1 (centres unmarked) [Example 7]	30 to 300 nM
NC(CCC(=O)O)P(=O)(O)CCc1cccc(Cl)c1Cl (centres unmarked) [Example 40]	< 30 nM
COc1ccccc1CP(=O)(O)C(N)CCC(=O)O (centres unmarked) [Example 10]	< 30 nM
COc1ccccc1CCP(=O)(O)C(N)CCS(=O)(=O)O (centres unmarked) [Example 62]	30 to 300 nM
NC(CCC(=O)O)P(=O)(O)CCc1ccccc1OC1CCCCC1 (centres unmarked) [Example 43]	< 30 nM

Request: Could you tell me which IC50 is on file for NC(CCC(=O)O)P(=O)(O)Cc1ccccc1Oc1ccccc1 (centres unmarked) [Example 16] ?
Result: 30 to 300 nM

Request: Check COc1ccccc1CCP(=O)(O)[C@@H](N)CCC(=O)O.Cl [Example 52] too.
Result: < 30 nM

Request: Check NC(CCC(=O)O)P(=O)(O)Cc1cc(C(F)(F)F)cc(C(F)(F)F)c1 (centres unmarked) [Example 5] too.
Result: 300 to 10000 nM

====

- Target Or System: recombinant mouse APA (Mus musculus, UniProt P16406)
- Method Notes: Measurement of APA activity in vitro (GluβNa hydrolysis, microplate)
- Test Parameters: 200 μM Glu-βNa, pH 7.4, 37° C., read-out: In vitro inhibition of aminopeptidase A, IC50 classification
pIC50: −log10 of the molar value.
Listing of entries alongside the reported pIC50.

Reference set, count: 3
Compound	pIC50
COc1ccc(CCP(=O)(O)C(N)CCC(=O)O)cc1 (centres unmarked) [Example 34]	> 7.52
NC(CCC(=O)O)P(=O)(O)CCc1ccccc1-c1ccccc1 (centres unmarked) [Example 39]	6.52 to 7.52
NC(CCC(=O)O)P(=O)(O)CCc1cccc2ccccc12 (centres unmarked) [Example 31]	> 7.52

Request: Write down the reported pIC50 of N[C@H](CCC(=O)O)P(=O)(O)CCc1ccccc1 [Example 51] , test system: recombinant mouse APA (Mus musculus, UniProt P16406).
Result: 5.00 to 6.52

Request: Check NC(CCC(=O)O)P(=O)(O)CCc1ccccc1Cl (centres unmarked) [Example 28] too.
Result: > 7.52
